# Test system: NK-92 (IL-2 2.5 ng/mL);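 further: normalised to DMSO-only wells as negative and benzethonium chloride as positive control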
# measurement-notes: percent inhibition of viability; higher = more inhibition
# test-settings: 72 h; 0.1 nM
Overview of recorded percent inhibition of viability for various compounds
observation-type: percent inhibition of viability (%)

CC[C@@H]1C(=O)N(C)c2cnc(Nc3ccc(C(=O)NC4CCN(C)CC4)cc3OC)nc2N1C1CCCC1 [BI 2536] (max concentration tested 1000 nM)	-10.3
CO[C@H]1C[C@@H]2CC[C@@H](C)[C@@](O)(O2)C(=O)C(=O)N2CCCC[C@H]2C(=O)O[C@H]([C@H](C)C[C@@H]2CC[C@@H](OP(C)(C)=O)[C@H](OC)C2)CC(=O)[C@H](C)/C=C(\C)[C@@H](O)[C@@H](OC)C(=O)[C@H](C)C[C@H](C)/C=C/C=C/C=C/1C [Ridaforolimus] (max concentration tested 100 nM)	-5.36
COc1cc2/c(=N/c3ccc(Br)cc3F)nc[nH]c2cc1OCC1CCN(C)CC1 [Vandetanib] (max concentration tested 1000 nM)	-4.34

FYI, the data here is from the supplement of paper PMC5908809.
